test system: P. falciparum 3D7; assay: DAPI stain fluorescent high content imaging assay, P. falciparum 3D7 (confirmatory screen, Avery); details: Plasmodium falciparum, 3D7, read-out: EC50_nM
For each record, check the reported EC50: if it is below 200 nM write met, else write not met.

// below: answered compounds
>>> assigned_class("O=C(Nc1ccc(Cl)c(Cl)c1)Nc1ccc(Cl)c(Cl)c1")
"not met"
>>> assigned_class("COc1ccccc1CNC(=O)CCn1c(=O)[nH]c2ccccc2c1=O")
"met"
>>> assigned_class("O=C(NCCCN1CCC(N2CCCCC2)CC1)C1=Cc2cc(Br)ccc2OC1")
"not met"
>>> assigned_class("COc1cc(OC)c(N(C)C(=O)c2cc3c(s2)-c2ccccc2S(=O)(=O)C3)cc1Cl")
"met"
>>> assigned_class("CC(C)=CCN1CCC(C(=O)Nc2ccc(-c3nc4ccccc4[nH]3)cc2)CC1")
"not met"
>>> assigned_class("Cc1ccnc(NC(c2cccc(OCc3ccccc3)c2)c2ccc3cccnc3c2O)c1 (centres unmarked)")
"not met"
>>> assigned_class("Oc1ccccc1CN1CCN(C(c2ccccc2)c2ccccc2)CC1")
"not met"
>>> assigned_class("CCN(Cc1ccccc1)C1CCN(Cc2cc(Br)ccc2O)CC1")
"not met"
>>> assigned_class("CN1CCN(c2ccc(Nc3c4ccccc4nc4ccccc34)cc2)CC1")
"met"

# input Regarding `FC(F)(F)c1cccc(CNC2CCN(CCc3ccccc3)CC2)c1` , kindly confirm whether its EC50 is beneath 200 nM.
# output not met

* * *

system: P. falciparum 3D7; experiment: DAPI stain fluorescent high content imaging assay, P. falciparum 3D7 (confirmatory screen, Avery); conditions: Plasmodium falciparum, 3D7, read-out: percent_inh @ 5 uM
Property Measured: inhibition of growth at 5 µM (%)
Answer in %, number only, no unit symbol.

Worked cases, inhibition of growth at 5 µM given:
>>> recorded_measurement("COc1cccc(O)c1CN1CCC2(CCCN(Cc3ccc(F)cc3)C2)C1 (centres unmarked)")
95
>>> recorded_measurement("CCOc1cccc2sc(N(Cc3cccnc3)C(=O)C3CCCCC3)nc12")
94
>>> recorded_measurement("FC(F)(F)c1cccc(Nc2nc3ccccc3nc2Nc2cccc(C(F)(F)F)c2)c1")
99
>>> recorded_measurement("O=C(Nc1ccc(N2CCCCC2)c(Cl)c1)c1ccc(Br)o1")
96

# input Given `CC(C)=CCN1CCC(C(=O)Nc2ccc(-c3nc4ccccc4[nH]3)cc2)CC1` , state its recorded inhibition of growth at 5 µM.
# output 96

* * *

system: P. falciparum 3D7; assay: DAPI stain fluorescent high content imaging assay, P. falciparum 3D7 (confirmatory screen, Avery); conditions: Plasmodium falciparum, 3D7, read-out: percent_inh @ 5 uM
Property Measured: inhibition of growth at 5 µM (%)
Answer in %, number only, no unit symbol.

# input Given `COc1cc(C(=O)ON=C(N)Cc2cccc3ccccc23)cc(OC)c1OC` , state its recorded inhibition of growth at 5 µM.
# output 99

# input Given `COc1cccc(C(=O)Nc2ccc(-c3nc4ccccc4[nH]3)cc2)c1` , state its recorded inhibition of growth at 5 µM.
# output 83

# input Given Cc1cccc(N2C(=O)C3C(C2=O)C2(c4ccccc4)C(=O)C3(c3ccccc3)C(c3ccc4c(c3)OCO4)=C2c2ccc3c(c2)OCO3)c1 (centres unmarked) , state its recorded inhibition of growth at 5 µM.
# output 94

# input Given `O=C(Nc1ccsc1C(=O)NC1CCCCC1)c1ccc(F)cc1` , state its recorded inhibition of growth at 5 µM.
# output 86

# input Given COc1ccc2c(c1OC)C(=O)N1c3ccccc3N=C(c3ccc(C)cc3)CC21 (centres unmarked) , state its recorded inhibition of growth at 5 µM.
# output 93
